assay: melting temperature; fluorescence melt of hairpins on a sequencing array, two-state fit, raised by 9.35 °C to match UV melts
condition.summary: sodium 0.088 M
Provide the recorded Tm for the entries that follow.
Express it in °C; write the number only.

### Prompt Give a short answer stating reported Tm for GAGCACGAAAGTGGCCTC ((((((....)))..))) .
### Response 42

### Prompt Check the records and state Tm for GCGATCGGTCGC ((((....))))
### Response 48.5

### Prompt Respond only with Tm recorded for GATCATGATGATGATC ((((((....))))))
### Response 47.5

### Prompt Supply reported Tm belonging to this sequence: GCTACGCGAAAGCATGGC ((.(.((....)).).))
### Response 37

### Prompt Name the recorded Tm of the item GGGCGTGCGAAAGCACCC (((..(((....)))))) in your answer.
### Response 54.4

### Prompt Determine its reported Tm: GCTAAGCGAAAGCTTGGC ((.((((....)))).))
### Response 62.9

### Prompt # return recorded Tm for entry GGTCAATCGAAAGATACC (((..(((....))))))
### Response 26.9

### Prompt Output Tm of GATCCTCTGTAGGATC ((((((....))))))
### Response 51.8

### Prompt Provide one value: measured Tm of CAAGAGAAATCTTG (((((....)))))
### Response 31.7

### Prompt Entry GCACTAGGAAACTAGCGC ((.((((....)))).)) needs its Tm filled in; supply it.
### Response 45.5

### Prompt Output measured Tm for this item: GATCTATTCTAGATC ((((((...))))))
### Response 41.3

### Prompt Retrieve Tm measured for GTCCCTACGAAAGTAGAC (((..(((....)))))) and print it.
### Response 25.9

### Prompt Fill in reported Tm for this entry: GATCCCGGGCGGGATC ((((((....))))))
### Response 61.1

### Prompt Specify measured Tm for GTTGGCGAAAGCCGTAAC ((((((....)))..))) .
### Response 33.4

### Prompt Give the value of Tm reported for the following: GGGCAGGGAAACCTACCC (((.(((....))).)))
### Response 45.5

### Prompt Identify measured Tm corresponding to GGTATAGGAAACTATGCC ((.((((....)))).))
### Response 43.2

### Prompt Report measured Tm; entry is GATGCCGAAAGGCTTATC ((((((....)))..)))
### Response 31.5

### Prompt Check the records and state Tm for GCGTCCGCACGC ((((....))))
### Response 52.8

### Prompt Return Tm (reported value) for this sequence: GAGACCGAAAGGTCACTC ((((((....)))..)))
### Response 55.1

### Prompt Dear colleague, please send me the reported Tm for GTGAAGCGAAAGCTCAC (((.(((....)))))) when you can.
### Response 56

### Prompt For the sequence GATCCTGGTAAGGATC ((((((....)))))) , give its measured Tm value.
### Response 65.8

### Prompt Name the recorded Tm of the sequence listed here: GCTTTAGGAAACTGAAGC ((((.((....)).))))
### Response 42.4

### Prompt State its Tm for this sequence: GATCCGGACCGGATC ((((((...))))))
### Response 57.3

### Prompt Assign Tm to the following record: GCCCTGTCGAAAGACGGC (((..(((....))))))
### Response 44.5

### Prompt Identify Tm associated with the sequence GCCTATGGAAACATAAGC ((.((((....)))).))
### Response 27.6

### Prompt Query Tm for GATAGGCGAAAGCCATC (((.(((....))))))
### Response 40.3

### Prompt Item GGAACCGAAAGGTCATCC ((((((....)))..))) : provide Tm
### Response 28.6

### Prompt Read the entry GCCCCCCGAAAGGGTGGC (((.(((....))).))) and write its reported Tm.
### Response 64.2

### Prompt Report Tm for GCTGGGCGAAAGCCTGGC ((..(((....)))..))
### Response 60.9

### Prompt Answer with the recorded Tm of GCTCGGTCGAAAGACAGC (((..(((....)))))) only.
### Response 41.2

### Prompt Provide one value: measured Tm of GTCGTGGGAAACCATGGC (.(.(((....))).).)
### Response 40.6

### Prompt Kindly indicate its recorded Tm. Item: GATCGAACGCTCGATC ((((((....))))))
### Response 50.7

### Prompt Write down Tm measured for item GGATTCGAAAGAACCTCC ((((((....)))..)))
### Response 37.8

### Prompt Using known records, supply Tm for CTGAAGAAATTCAG (((((....)))))
### Response 33.4

### Prompt For the sequence GTGAACGAAAGTTCGCAC ((((((....)))..))) , give its reported Tm.
### Response 51.3

### Prompt Return value of Tm for input GCGTCTCCACGC ((((....)))) , no commentary.
### Response 52

### Prompt Kindly indicate its recorded Tm. Item: GCTTGGGGAAACCTAGGC ((.(.((....)).).))
### Response 32.3

### Prompt Please indicate Tm recorded for GTGAGCCGAAAGGCCAC (((.(((....))))))
### Response 64.7

### Prompt Name the recorded Tm of the sequence listed here: GCCTGGCGAAAGCAGGGC (((..((....))..)))
### Response 65.6

### Prompt Please report Tm for the following sequence: GATCAGCATGCTGATC ((((((....))))))
### Response 60.8

### Prompt Determine its reported Tm: GGGGCAGGAAACTACCCC ((((.((....)).))))
### Response 49

### Prompt Assign Tm to the following record: GATCGACGATTCGATC ((((((....))))))
### Response 49.4

### Prompt Supply measured Tm of GATCCACTTTTGGATC ((((((....)))))) in your reply.
### Response 50.6

### Prompt Please list Tm recorded for the sequence GGTCAACGAAAGTTCACC (((.(((....))).)))
### Response 35.1

### Prompt For GCGATCCTCGC ((((...)))) , write its Tm.
### Response 50.3

### Prompt Give me measured Tm, please, for this sequence: GATCGCCAGCGCGATC ((((((....))))))
### Response 63.7

### Prompt For the sequence GACGCACGAAAGTGTGTC (((.(((....))).))) , report Tm.
### Response 61.8

### Prompt State, in one line, measured Tm of GTCGCGGGAAACCGTGGC (.(.(((....))).).)
### Response 50.3

### Prompt State its Tm for this sequence: GCGTTGCGAAAGCTGCGC (((..((....))..)))
### Response 65.1

### Prompt Report measured Tm; entry is GGGATCGAAAGATTCCC ((((((....))).)))
### Response 51

### Prompt Supply reported Tm belonging to this sequence: GGATATCGAAAGATGTCC (((.(((....))).)))
### Response 52

----------
assay: folding enthalpy; higher = less favourable; fluorescence melt of hairpins on a sequencing array, two-state fit
condition.summary: sodium 0.088 M
Consider the following sequences; for each one, report its folding enthalpy.
Provide the reading as a plain figure in kJ/mol.

### Prompt Report measured folding enthalpy; entry is GATCGACATTCGATC ((((((...))))))
### Response -151

### Prompt Give the measured folding enthalpy for GTAGGAGGAAACTTCTAC ((((.((....)).))))
### Response -113

### Prompt Note down folding enthalpy recorded for GCGCGCCGAAAGGCCCGC (((.(((....))).)))
### Response -135

### Prompt Please supply the value of reported folding enthalpy for the item GATCACACATGTGATC ((((((....))))))
### Response -159

### Prompt Find the measured folding enthalpy of GAAGCGAAAGCTTC (((((....))))) and report it.
### Response -108

### Prompt Provide one value: measured folding enthalpy of GGTCCCGAAAGGGTACC ((((((....))).)))
### Response -98.1
